assay-explanation: Oral bioavailability in Sprague-Dawley rat at 3 mg/kg
Type: ADME, organism-based
condition-notes: in vivo
parameter: bioavailability (%)
// note: answer is a bare numeric in %

Here are 3 compounds together with their reported answers.
{"columns": ["compound", "bioavailability, %"],
 "data": [
  ["CC(C)N1C(=O)[C@H](NC(=O)[C@@H](Cc2ccccc2OC(F)(F)F)NC(=O)OC(C)(C)C)CCc2cc(C(F)(F)F)ccc21", 59],
  ["CC1CC1C(=O)N[C@H](Cc1ccccc1F)C(=O)N[C@@H]1CCc2c(F)c(F)cc(F)c2N(C(C)C)C1=O (some centres not stated)", 47],
  ["CC(C)N1C(=O)[C@H](NC(=O)[C@@H](Cc2ccccc2F)NC(=O)c2ccc(F)cc2C(F)(F)F)CCc2cc(F)ccc21", 56]
]}

For reference, reported bioavailability for O=C(N[C@H](Cc1ccccc1F)C(=O)N[C@@H]1CCc2c(F)c(F)cc(F)c2N(C2CC2)C1=O)C1CC1C(F)(F)F (some centres not stated) stands at 100

For reference, reported bioavailability for CC(C)N1C(=O)[C@H](NC(=O)[C@@H](Cc2ccccc2OC(F)(F)F)NC(=O)OC(C)(C)C)CCc2ccc(F)cc21 stands at 20

For reference, reported bioavailability for CC(C)N1C(=O)[C@H](NC(=O)[C@@H](Cc2ccccc2F)NC(=O)c2ccc(F)cc2C(F)(F)F)CCc2cc(C(F)(F)F)ccc21 stands at 75

For reference, reported bioavailability for CC(C)N1C(=O)[C@H](NC(=O)[C@@H](Cc2ccccc2OC(F)(F)F)NC(=O)OC(C)(C)C)CCc2cc(F)ccc21 stands at 35

Cited source: ChEMBL document CHEMBL2390921
